These entries and their values trace back to ChEMBL document CHEMBL5104192.

# Species: Homo sapiens
# EXPERIMENT: Selectivity ratio of Ki for human MC4R to Ki for human MC1R
*1 amine or outer side, *2 acyl side, *3 side chain or, on linkers, in order; H or OH if unused. Where a SMILES comes first, the peptide text is derived from it. Bridges are numbered along the chain shown (N, C = ends). [ ]: non-standard residue; d: D form. oXylylene = c1ccc(C[*:2])c(C[*:1])c1; NMeR = CN[C@@H](CCCNC(=N)N)C(=O)O; X1 = n1nc([*:2])nnc1[*:1]; Nle = CCCC[C@H](N)C(=O)O
OBSERVATION TYPE: Ratio Ki

1) CC[C@H](C)[C@@H]1NC(=O)[C@@H]2CCCN2C(=O)[C@H](Cc2c[nH]c3ccccc23)NC(=O)[C@H](CCCNC(=N)N)N(C)C(=O)[C@H](Cc2ccccc2)NC(=O)[C@H](Cc2cnc[nH]2)NC(=O)[C@H]([C@@H](C)O)NC(=O)[C@@H](NC(C)=O)CSCc2ccccc2CSC[C@@H](C(N)=O)NC1=O (Ac-CTHF[NMeR]WPIC-NH2; linker 1-9 via oXylylene); 33
2) CCCC[C@@H]1NC(=O)[C@@H]2CSc3nnc(nn3)SC[C@H](NC(=O)[C@H](CCCNC(=N)N)NC(=O)[C@H](CC(=O)O)NC(=O)[C@H](Cc3c[nH]c4ccccc34)NC(=O)[C@H](CCCNC(=N)N)NC(=O)[C@H](Cc3ccccc3)NC(=O)[C@H](Cc3cnc[nH]3)NC(=O)CNC1=O)C(=O)N[C@@H](Cc1cnc[nH]1)C(=O)N[C@@H](Cc1ccccc1)C(=O)N[C@@H](CCCNC(=N)N)C(=O)N[C@@H](Cc1c[nH]c3ccccc13)C(=O)N[C@@H](CCCNC(=N)N)C(=O)N2 (cyclo(CHFRWRC[Nle]GHFRWDR); linker 1-7 via X1); 47
